molecular target: Cytochrome P450 2C19 (Homo sapiens) (UniProt P33261); assay: Cytochrome P450 Family 2 Subfamily C Member 19 (CYP2C19) small molecule antagonists: luciferase reporter qHTS assay (AID 1671197); conditions: P450-Glo CYP2C19 enzyme, luciferin luminescence, 1 h; series mostly up to 115 µM; also: nearly all actives have a fitted effect of over 65% in size
Sequence (P33261 whole entry, looked up): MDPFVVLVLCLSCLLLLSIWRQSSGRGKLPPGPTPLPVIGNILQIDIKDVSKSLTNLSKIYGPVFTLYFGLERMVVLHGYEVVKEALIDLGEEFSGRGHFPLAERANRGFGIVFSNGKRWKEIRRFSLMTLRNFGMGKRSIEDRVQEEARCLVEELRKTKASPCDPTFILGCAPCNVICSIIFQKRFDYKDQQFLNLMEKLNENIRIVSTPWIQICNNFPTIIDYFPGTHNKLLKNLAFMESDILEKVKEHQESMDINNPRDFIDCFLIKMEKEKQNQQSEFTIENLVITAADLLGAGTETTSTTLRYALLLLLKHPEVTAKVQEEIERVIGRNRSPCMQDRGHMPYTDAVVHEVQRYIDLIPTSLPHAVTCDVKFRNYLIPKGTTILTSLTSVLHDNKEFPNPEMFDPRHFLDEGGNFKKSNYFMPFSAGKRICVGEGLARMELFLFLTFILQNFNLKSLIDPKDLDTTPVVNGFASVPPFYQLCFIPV
Records with an inconclusive call do not appear. Calls of active or inactive are those of the source. Calls follow the shape of the dose curve; as a rule, active = well fitted inhibition curve with a large enough effect in the repeat runs; inconclusive = weak or mixed curves; inactive = no such curve, though single readings can be large or run the other way.
Hi there, use one of these labels in your reply, thanks! class 1 (active), class 0 (inactive)

COMPOUND STRUCTURE STRING	CLASS NAME
O=[N+]([O-])c1cccc(Cl)c1Cl	class 0
Oc1ccc2c(c1)OCO2	class 1
CCCCOCCOCCOCCOCCO	class 0
CN1CCC(=C2c3ccccc3C=Cc3ccccc32)CC1	class 1

Shift focus to the following entry.
Exercise: Would you mind telling me which call this test gave CCN1CCC[C@H]1CNC(=O)c1c(OC)ccc(Br)c1OC ?
Solution: class 0

----------
assay: qHTS assay to identify small molecule agonists of the AP-1 signaling pathway (AID 1159526); conditions: ME-180 AP-1-bla reporter, beta-lactamase FRET ratio, 5 h; series mostly up to 76.8 µM
Records with an inconclusive call do not appear. Active and inactive are the calls of the source. The call rests on the fitted dose curve.
Hi there, use one of these labels in your reply, thanks! true = active, false = inactive

Reference set (5 entries):
MOLECULE	CLASS NAME
CCC(C)N(C)C(=O)c1cc2ccccc2c(-c2ccccc2Cl)n1 (stereo not given)	false
CCOc1ccc2[nH]cc(C(=O)NCc3ccccc3)c(=O)c2n1	false
CC(C)(C)c1ccc(S)cc1	false
O=CNc1ccccc1	false
N#Cc1c(F)cccc1F	false

Shift focus to the following entry.
Exercise: Would you mind telling me which call this test gave C[Si](C)O[Si](C)(C)O[Si](C)(C)O[Si](C)C ?
Solution: false

----------
target: Cytochrome P450 2C9 (Homo sapiens) (UniProt P11712); assay: Cytochrome P450 Family 2 Subfamily C Member 9 (CYP2C9) small molecule antagonists: luciferase reporter qHTS assay (AID 1671198); conditions: P450-Glo CYP2C9 enzyme assay, luciferin luminescence; series mostly up to 115 µM; also: nearly all actives have a fitted effect of over 50% in size
Sequence (P11712 whole entry, looked up): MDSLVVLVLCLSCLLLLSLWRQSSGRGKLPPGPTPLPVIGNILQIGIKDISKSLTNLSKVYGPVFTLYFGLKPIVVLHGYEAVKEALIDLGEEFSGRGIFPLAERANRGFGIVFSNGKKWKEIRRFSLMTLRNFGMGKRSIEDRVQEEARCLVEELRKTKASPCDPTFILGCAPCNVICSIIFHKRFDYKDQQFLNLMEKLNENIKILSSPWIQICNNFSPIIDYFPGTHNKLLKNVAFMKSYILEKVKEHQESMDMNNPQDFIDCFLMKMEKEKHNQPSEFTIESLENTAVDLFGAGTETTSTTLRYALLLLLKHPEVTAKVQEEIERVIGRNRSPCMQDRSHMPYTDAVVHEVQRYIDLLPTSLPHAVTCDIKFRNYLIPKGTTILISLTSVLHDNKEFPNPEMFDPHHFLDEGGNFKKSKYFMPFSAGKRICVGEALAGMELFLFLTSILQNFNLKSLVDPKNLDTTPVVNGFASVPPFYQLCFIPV
Inconclusive results are not listed. Active and inactive are the calls of the source. The call rests on the fitted dose curve; in most records, active means well fitted inhibition curve with a large enough effect in the repeat runs; inconclusive means weak or mixed curves; inactive means no such curve, though single readings can be large or run the other way.
Hi there, use one of these labels in your reply, thanks! Yes = active, No = inactive

Exercise: Would you mind telling me which call this test gave CC1=CC(=O)/C(=C(/C)O)C(=O)O1 ?
Solution: Yes

Exercise: Would you mind telling me which call this test gave O=C(NN1CCCC1)NS(=O)(=O)c1ccc(Cl)cc1 ?
Solution: No

Exercise: Would you mind telling me which call this test gave O=C(O)c1cn(C2CC2)c2cc(Cl)c(F)cc2c1=O ?
Solution: No

Exercise: Would you mind telling me which call this test gave CC[C@H](C)[C@H](N)C(=O)O ?
Solution: No

Exercise: Would you mind telling me which call this test gave CC/C(=C\C(=N/O)C(N)=O)C(C)[N+](=O)[O-] (stereo not given) ?
Solution: No

Exercise: Would you mind telling me which call this test gave O=C(O)Cc1sc(-c2ccccc2)nc1-c1ccc(Cl)cc1 ?
Solution: Yes

Exercise: Would you mind telling me which call this test gave O=C(NS(=O)(=O)/C=C/c1cccs1)c1ccc(F)cc1Br ?
Solution: Yes

Exercise: Would you mind telling me which call this test gave CCCCCC(CO)CCC (stereo not given) ?
Solution: No

Exercise: Would you mind telling me which call this test gave Oc1ccc(Cc2ccccc2)cc1 ?
Solution: Yes

Exercise: Would you mind telling me which call this test gave C#CCOC(=O)[C@@H](C)Oc1ccc(Oc2ncc(Cl)cc2F)cc1 ?
Solution: Yes

Exercise: Would you mind telling me which call this test gave CC(=O)Nc1ccc(/C=N/NC(N)=S)cc1 ?
Solution: No

----------
Experiment: qHTS assay to identify small molecule agonists of the sonic hedgehog signaling (Shh) pathway - cell viability counter screen (AID 1259366); also: nearly all actives have a fitted effect of over 50% in size
Conditions: NIH/3T3 Gli1-Luc viability, CellTiter-Fluor, 24 h; series mostly up to 92.4 µM
Excerpt: National Center for Advancing Translational Sciences [NCATS] NIH Chemical Genomics Center [NCGC] U.S. Environmental Protection Agency [EPA] National Institutes of Environmental Health Sciences [NIEHS] National Toxicology Program [NTP] U.S. Food and Drug Administration [FDA] The sonic hedgehog (Shh) pathway is essential for normal embryonic development. Dysregulation of the Shh pathway can cause severe developmental defects in organs. […]
Inconclusive results are not listed. The source made the active and inactive calls. Calls come from the whole dose curve; as a rule, active = well fitted cell-killing curve with a large enough effect in the repeat runs; inconclusive = weak or mixed curves, or effect the other way; inactive = flat fitted curve, though single readings scatter.
Hi there, use one of these labels in your reply, thanks! active, inactive

Reference set (5 entries):
COMPOUND	CLASS NAME
C=Cc1c(C)c2cc3[nH]c(cc4nc(cc5nc(cc1[nH]2)C(C)=C5CCC(=O)O)C(CCC(=O)O)=C4C)c(C)c3C=C	active
COc1ccc2[nH]c(S(=O)Cc3ncc(C)c(OC)c3C)nc2n1 (stereo not drawn)	inactive
CC1(C)[C@H]2CC[C@]1(C)[C@H](O)C2	inactive
FC(F)(F)C(F)(F)C(F)(F)C(F)(F)C(F)(F)C(F)(F)CCI	inactive
CCOc1nc2cccc(C(=O)O)c2n1Cc1ccc(-c2ccccc2-c2nn[nH]n2)cc1	inactive

Exercise: Would you mind telling me which call this test gave N#CCCNCCC#N ?
Solution: inactive

Exercise: Would you mind telling me which call this test gave N#CCc1cccc(C(F)(F)F)c1 ?
Solution: inactive

Exercise: Would you mind telling me which call this test gave Cc1ccc(C(=O)C(C)CN2CCCCC2)cc1 (stereo not drawn) ?
Solution: inactive

Exercise: Would you mind telling me which call this test gave CCN(CC)C(C)=O ?
Solution: inactive

Exercise: Would you mind telling me which call this test gave c1ccc(CNCc2ccccc2)cc1 ?
Solution: inactive

Exercise: Would you mind telling me which call this test gave CC(=O)SCc1ccco1 ?
Solution: inactive

Exercise: Would you mind telling me which call this test gave CCCCCCOC(=O)CCC ?
Solution: inactive

Exercise: Would you mind telling me which call this test gave CC(=O)N(O)CCCCCNC(=O)CCC(=O)N(O)CCCCCNC(=O)CCC(=O)N(O)CCCCCN ?
Solution: inactive

Exercise: Would you mind telling me which call this test gave O=S1(=O)N=C(O)c2ccccc21 ?
Solution: inactive

Exercise: Would you mind telling me which call this test gave CCN(CC)CCNC(C(=O)OCCC(C)C)c1ccccc1 (stereo not drawn) ?
Solution: inactive

Exercise: Would you mind telling me which call this test gave NC(N)=N/N=C/c1c(Cl)cccc1Cl ?
Solution: active

Exercise: Would you mind telling me which call this test gave O=C(O)Cn1c(C(=O)Nc2nc(-c3ccccc3Cl)cs2)cc2ccccc21 ?
Solution: inactive

Exercise: Would you mind telling me which call this test gave Cc1ncsc1CCO ?
Solution: inactive

Exercise: Would you mind telling me which call this test gave O=C1Nc2cc(Cl)ccc2Oc2ccccc21 ?
Solution: inactive

Exercise: Would you mind telling me which call this test gave N[C@H]1C(O)O[C@H](CO)[C@H](O)[C@@H]1O (stereo partly drawn) ?
Solution: inactive

----------
assay: qHTS RealTime-Glo MT Cell Viability Assay in HEK293 cells - 8 hour (AID 1224887); details: RealTime-Glo luminescence; series mostly up to 76.8 µM; also: top concentration of the series differs between compounds; nearly all actives have a fitted effect of over 50% in size
Records with an inconclusive call do not appear. Active and inactive are the calls of the source. Calls follow the shape of the dose curve; as a rule, active = well fitted cell-killing curve with a large enough effect in the repeat runs; inconclusive = weak or mixed curves, or effect the other way; inactive = flat fitted curve, though single readings scatter.
Hi there, use one of these labels in your reply, thanks! active, inactive

Reference set (3 entries):
COMPOUND	CLASS NAME
CC(=O)SCc1ccco1	inactive
Cc1ccc(C)o1	inactive
COCCCCCCCCOCCC[Si](C)(O[Si](C)(C)C)O[Si](C)(C)C	inactive

Exercise: Would you mind telling me which call this test gave CC(C)c1ccc2c(C(C)C)cc(C(C)C)c(S(=O)(=O)O)c2c1 ?
Solution: inactive

Exercise: Would you mind telling me which call this test gave CCCCOCCOCCOCCOCCO ?
Solution: inactive

Exercise: Would you mind telling me which call this test gave CCC(=O)OC(C)(C)C1CC=C(C)CC1 (stereo not given) ?
Solution: inactive

----------
experiment: qHTS assay to identify small molecule agonists of the AP-1 signaling pathway (AID 1159526); conditions: ME-180 (cervical carcinoma) AP-1-bla reporter, beta-lactamase FRET ratio, 5 h; series mostly up to 76.8 µM
Inconclusive results are not listed. Calls of active or inactive are those of the source. Calls follow the shape of the full dose curve.
Hi there, use one of these labels in your reply, thanks! 1 (yes) = active, 0 (no) = inactive

MOLECULE	CLASS NAME
Nc1ccc(C(=O)N2CC3CC(CN(Cc4ccccc4)C3)C2)cc1	0 (no)
CC[C@H](C)[C@@H](C(=O)O)n1sc2ccccc2c1=O	0 (no)
CNCC[C@@H](Oc1ccccc1C)c1ccccc1	1 (yes)
CC(C)=CCCC(C)CC=O (centres undefined)	0 (no)
Cc1ccccn1	0 (no)
CC(C)(Oc1ccc(Cl)cc1)C(=O)OCCCOC(=O)C(C)(C)Oc1ccc(Cl)cc1	0 (no)
O=C(Cl)c1c(Cl)cccc1Cl	0 (no)
CCN(CC)CCOC(=O)C1(c2ccccc2)CCCC1	0 (no)

Shift focus to the following entry.
Exercise: Would you mind telling me which call this test gave COc1ccccc1OC(=O)Oc1ccccc1OC ?
Solution: 0 (no)
